- assayed.system: S. aureus GyrB ATPase (Staphylococcus aureus, UniProt P0A0K8)
- Sequence (P0A0K8 whole entry): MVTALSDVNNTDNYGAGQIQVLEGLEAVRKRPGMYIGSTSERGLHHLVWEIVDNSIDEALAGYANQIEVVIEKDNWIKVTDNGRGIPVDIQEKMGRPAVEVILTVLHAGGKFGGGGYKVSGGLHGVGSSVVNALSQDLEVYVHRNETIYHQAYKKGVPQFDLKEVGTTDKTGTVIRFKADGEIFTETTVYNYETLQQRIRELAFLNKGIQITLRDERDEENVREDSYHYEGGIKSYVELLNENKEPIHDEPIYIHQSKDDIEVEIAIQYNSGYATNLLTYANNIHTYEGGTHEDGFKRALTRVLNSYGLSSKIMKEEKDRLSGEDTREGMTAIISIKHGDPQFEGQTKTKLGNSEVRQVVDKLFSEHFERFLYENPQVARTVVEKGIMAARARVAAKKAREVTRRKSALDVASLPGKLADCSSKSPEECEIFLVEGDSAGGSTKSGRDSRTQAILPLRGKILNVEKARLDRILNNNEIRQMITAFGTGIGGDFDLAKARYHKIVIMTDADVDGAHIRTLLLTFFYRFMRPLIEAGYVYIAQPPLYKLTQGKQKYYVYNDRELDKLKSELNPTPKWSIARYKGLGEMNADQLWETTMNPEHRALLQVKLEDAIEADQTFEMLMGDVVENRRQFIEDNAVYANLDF
- Sequence (P0AES4 whole entry, further chain): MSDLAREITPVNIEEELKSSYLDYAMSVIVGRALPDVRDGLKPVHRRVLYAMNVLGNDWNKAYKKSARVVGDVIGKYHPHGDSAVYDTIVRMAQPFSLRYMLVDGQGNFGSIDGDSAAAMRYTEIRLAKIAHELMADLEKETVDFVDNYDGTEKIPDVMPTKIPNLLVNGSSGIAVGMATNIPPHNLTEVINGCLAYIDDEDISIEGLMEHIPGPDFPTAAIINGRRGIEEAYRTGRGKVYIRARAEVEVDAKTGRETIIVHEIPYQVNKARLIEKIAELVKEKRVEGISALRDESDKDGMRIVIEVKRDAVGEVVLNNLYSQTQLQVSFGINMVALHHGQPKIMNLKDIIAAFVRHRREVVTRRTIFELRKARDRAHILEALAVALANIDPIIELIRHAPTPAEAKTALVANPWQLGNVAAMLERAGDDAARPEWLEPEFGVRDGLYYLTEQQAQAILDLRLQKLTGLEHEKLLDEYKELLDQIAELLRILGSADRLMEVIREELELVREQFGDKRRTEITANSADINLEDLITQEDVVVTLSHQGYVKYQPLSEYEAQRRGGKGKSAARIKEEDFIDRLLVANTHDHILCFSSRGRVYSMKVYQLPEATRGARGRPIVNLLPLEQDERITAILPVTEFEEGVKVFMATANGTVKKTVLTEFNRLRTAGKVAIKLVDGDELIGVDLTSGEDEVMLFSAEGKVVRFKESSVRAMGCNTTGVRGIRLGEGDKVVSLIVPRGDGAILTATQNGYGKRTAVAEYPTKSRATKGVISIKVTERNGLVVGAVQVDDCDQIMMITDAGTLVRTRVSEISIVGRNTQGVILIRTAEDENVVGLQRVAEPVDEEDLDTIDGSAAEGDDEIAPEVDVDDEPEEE
- experiment.description: S. aureus (SAU) GyrB ATPase inhibition, malachite green phosphate detection (E. coli GyrA + S. aureus GyrB)
- Format: biochemical
- condition.details: compound concentration of 1.0 μM unless otherwise noted; average value where assay was carried out more than once; read-out: S. aureus (SAU) GyrB ATPase % Inhibition
Exercise: state measured inhibition at 1 µM for each of the molecules provided.
Numbers only, in %.

Some entries whose results are on file:
[
  {
    "chemical.smiles": "CCNC(=O)Nc1cc(N2CCCC(C)(C)C2)c(-c2cncc(-c3n[nH]c(=O)o3)c2)cn1",
    "result.number": 97
  },
  {
    "chemical.smiles": "CCNC(=O)Nc1cc(-c2nc(C(F)(F)F)cs2)c(-c2cncc(-c3nnc(C)n3N)c2)cn1",
    "result.number": 94
  }
]

Shift focus to the following entry.
Form entry - test system: S. aureus GyrB ATPase (Staphylococcus aureus, UniProt P0A0K8); read-out: inhibition at 1 µM; molecule: CCNC(=O)Nc1cc(-c2nc(-c3cnn(C)c3)cs2)c(-c2cncc(-c3n[nH]c(=O)o3)n2)cn1
99
